Measured TGI accompanies every entry in the list below.
# System: COLO 205 colon
# protocol.summary: NCI tumour cell line growth inhibition, 48 h
recorded.endpoint: TGI (µM)

>>> value_measured("CC1SC(c2cccc(Oc3ccccc3)c2)N(CCc2cccs2)C1=O (stereo not given)")
3.05
>>> value_measured("COc1cc2c(cc1C)NC(=O)/C2=C/c1c(Cl)n(C)c2ccccc12")
31.2
>>> value_measured("CC[N+]1(C)CCC(O)(/C=C/c2ccccc2)C(C(=O)/C=C/c2ccccc2)C1 (stereo not given)")
8.19

---

# Test system: RPMI-8226 leukemia
# protocol.summary: NCI tumour cell line growth inhibition, 48 h
Listing: TGI of selected molecules
recorded.endpoint: TGI

>>> value_measured("CCO/C=N/C1=C(C#N)C(c2ccc(OC)c(OC)c2)c2c(-c3ccccc3)nn(-c3ccccc3)c2O1 (centres undefined)")
"> 100 µM"
>>> value_measured("Clc1ccc(CCN2CCN(CCCc3ccccc3)CC2)cc1Cl")
"55.2 µM"
>>> value_measured("COc1cc(C2C3=C(COC3=O)N(CCO)c3cc4c(cc32)CCC4)cc(OC)c1OC (centres undefined)")
"> 12.2 µM"
>>> value_measured("N#Cc1ccccc1C#C/C=C\\C#Cc1cnccn1")
"> 21.5 µM"

---

# Tested on: MALME-3M melanoma
# protocol.summary: NCI tumour cell line growth inhibition, 48 h
recorded.endpoint: TGI

>>> value_measured("CN(C)CCCn1c2c(c3ccc([N+](=O)[O-])cc3c1=O)C(=O)c1ccccc1-2")
"> 100 µM"
>>> value_measured("Clc1ccc(CCn2ccc3ccccc32)c(Cl)c1")
"> 100 µM"
>>> value_measured("CCCCCCn1c(=N)n(CC(O)COc2cccc(C)c2)c2ccccc21 (configuration not stated)")
"3.66 µM"
>>> value_measured("Cn1c([N+](=O)[O-])cnc1/C=C1\\Oc2ccc(Cl)cc2C1=O")
"4.78 µM"
>>> value_measured("O=c1[nH]c2cccccc-2c1-c1nc2ccccc2[nH]1")
"50.6 µM"
>>> value_measured("CN1CCN(c2nc3c(c(=O)n(C)c(=O)n3C)n2C)CC1")
"> 100 µM"
>>> value_measured("CC(C)OP(=O)(OC(C)C)c1ncn(-c2ccc([N+](=O)[O-])cc2)n1")
"> 100 µM"
>>> value_measured("O=C1OC2C(O)COC2(OCc2c[nH]c3ccccc23)C1O (configuration not stated) (tested in a mixture with another compound)")
"> 100 µM"
>>> value_measured("NC(N)=NS(=O)(=O)c1ccc(NC(=O)c2c3ccccc3nc3ccccc23)cc1")
"> 100 µM"
>>> value_measured("O=C(/C=C/CN1CCCCC1)Nc1cc2c(Nc3ccc(F)c(Cl)c3F)ncnc2cc1OCCOC(F)F")
"2.91 µM"
>>> value_measured("OB1OCc2ccccc21")
"> 100 µM"
>>> value_measured("Cc1nn(-c2ccccc2)c2ncc3c(c12)C(=O)N(Cc1ccccc1)C3=O")
"> 100 µM"
>>> value_measured("C[C@H]1C(=O)C2=C[C@H]1CCC(=O)[C@]1(C)CCCC(C)(C)[C@H]1C[C@H]2O")
"43.5 µM"
>>> value_measured("O=C(N/N=C/c1cc(-c2ccccc2Cl)c(-c2ccccc2Cl)o1)c1ccncc1")
"> 100 µM"
>>> value_measured("CCOC(=O)C1(C/C=C\\CBr)CCCCCCC1=O (configuration not stated)")
"> 100 µM"
>>> value_measured("CC(C)(C)OC(=O)NCCNC(=O)OCc1ccccc1")
"> 100 µM"
>>> value_measured("COc1ccc(C2Oc3cc(OC)c(O)cc3[C@@H]2C)cc1 (some centres not stated)")
"> 100 µM"
>>> value_measured("COc1ccc(C(=O)CC(Cl)=C(Cl)Cl)cc1")
"43 µM"
>>> value_measured("CCCCc1ccc(C(N)=O)nc1")
"> 100 µM"
>>> value_measured("Cc1ccc(S(=O)(=O)c2ccccn2)cc1")
"> 100 µM"
>>> value_measured("Cn1cnc2nc(Cl)nc(Cl)c21")
"50.3 µM"
>>> value_measured("COc1cc(OC)cc(N(C)Cc2cnc3nc(N)nc(N)c3c2C)c1")
"> 100 µM"
>>> value_measured("CSc1nc(Cl)c2c(n1)Sc1ncnn1C2O (configuration not stated)")
"8.22 µM"
>>> value_measured("CCCCCCc1cc2cc(C(=O)Nc3cccc(C(F)(F)F)c3)c(=N)oc2cc1O")
"6.2 µM"
>>> value_measured("N#Cc1c(C#N)c(-c2ccco2)n(/N=C/c2ccco2)c1N")
"> 100 µM"
>>> value_measured("CC(=O)CC(=O)Nn1c(-c2cccs2)nc2ccc(I)cc2c1=O")
"> 93.2 µM"
>>> value_measured("Oc1ccc(-c2nc(-c3ccc4oc5ccc(-c6[nH]c(-c7ccc(O)cc7)nc6-c6ccccc6)cc5c4c3)c(-c3ccccc3)[nH]2)cc1")
"68 µM"
